TARGET_UNDER_TEST: Cytochrome P450 3A4 (Homo sapiens) (UniProt P08684)
Sequence (P08684 whole entry, looked up): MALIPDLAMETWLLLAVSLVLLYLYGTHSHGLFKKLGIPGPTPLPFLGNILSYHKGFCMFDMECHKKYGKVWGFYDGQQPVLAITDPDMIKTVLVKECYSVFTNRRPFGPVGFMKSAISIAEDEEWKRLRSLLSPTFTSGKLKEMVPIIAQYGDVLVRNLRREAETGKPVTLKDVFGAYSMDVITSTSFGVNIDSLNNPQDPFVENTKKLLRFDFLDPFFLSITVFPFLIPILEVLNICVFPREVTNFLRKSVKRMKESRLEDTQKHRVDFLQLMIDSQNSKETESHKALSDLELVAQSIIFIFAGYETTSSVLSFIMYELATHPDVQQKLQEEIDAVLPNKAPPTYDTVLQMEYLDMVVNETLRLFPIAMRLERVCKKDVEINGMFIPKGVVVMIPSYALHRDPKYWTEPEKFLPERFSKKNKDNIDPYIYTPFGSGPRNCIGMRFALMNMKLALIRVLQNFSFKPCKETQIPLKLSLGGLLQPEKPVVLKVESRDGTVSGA
ASSAY_OVERVIEW: Cytochrome panel assay with activity outcomes
CONDITION: recombinant CYP, pro-luciferin dealkylation, luminescence, p450-cyp3a4; series mostly up to 57.1 µM
About 5,100 (32%) of roughly 16,000 compounds were called active. Inconclusive results (about 25%) are left out. The call rests on the fitted dose curve; in most records, active means well fitted curve in the direction sought with a large enough effect; inconclusive means small, poorly fitted or top-dose-only effect, or effect the other way; inactive means no such curve, though single readings can be large or run the other way. Some of the results follow.
Field 'call' accepts y for active, n for inactive

stdin: Assay result, entry CCOC(=O)c1sc(NS(=O)(=O)c2ccccc2)nc1C — outcome?
stdout: n

stdin: Recorded test outcome, item CCCN1CCN(CCCNC(=O)Cn2nc(-c3ccc(C)cc3)ccc2=O)CC1
stdout: n

stdin: Could you please tell me the result logged for COc1cccc(NS(=O)(=O)c2ccc3[nH]cc(C(=O)NCCN4CCOCC4)c(=O)c3c2)c1 in this assay?
stdout: y

stdin: Query: recorded result category for Cc1ccc(C(=O)NCCCN2CCOCC2)cc1N1CCCC1=O in this test
stdout: n
